- ASSAY_SUMMARY: Microsomal stability assay, rat liver microsomes
- STATED_CONDITIONS: female, Sprague-Dawley, rat, liver microsomes, pH 7.4, Microsomal stability assays: Clearance
Answer not satisfied if CLint scaled at 0.08 µM is under 200 mL/min/kg, and satisfied if it is 200 mL/min/kg or more.

# MOLECULE, CLASS_NAME
data = [
    ("FCC(Cc1ccc(F)cc1)NCCCc1ccc(F)cc1 (stereo not shown) [Compound 152]", "satisfied"),
    ("CC(Cc1ccc(F)cc1)NCCCn1cccn1 (stereo not shown) [Compound 132]", "not satisfied"),
    ("CCOC(=O)c1ccc(CCCNC(C)Cc2ccc(F)cc2)cc1 (stereo not shown) [Compound 158]", "not satisfied"),
    ("CC(Cc1ccc(Br)cc1)NCCCc1ccncc1 (stereo not shown) [Compound 174]", "not satisfied"),
    ("FCC(Cc1ccc(F)cc1)NCCCc1ccc(Cl)cc1 (stereo not shown) [Compound 150]", "satisfied"),
    ("CC(Cc1ccc(NC=O)cc1)NCCCc1ccccc1 (stereo not shown) [Compound 78]", "not satisfied"),
    ("CC(Cc1ccc(F)cc1)NCCCc1ccnc2ccccc12 (stereo not shown) [Compound 163]", "satisfied"),
    ("CC(Cc1ccc(F)cc1)NCCCc1c[nH]c2ccccc12 (stereo not shown) [Compound 91]", "satisfied"),
    ("CC(Cc1ccc(F)cc1)NCCCn1ccnc1 (stereo not shown) [Compound 135]", "not satisfied"),
]

* * *

- ASSAY_TARGET: VMAT2 (Rattus norvegicus (Rat))
- ASSAY_SUMMARY: [3H]Dopamine ([3H]DA) uptake assay, vesicular preparation
- Format: biochemical
- STATED_CONDITIONS: [3H]DA uptake, rat; read-out: VMAT2 (rat) Inhibition: Mean Ki ± Standard Deviation

# COMPOUND, ASSAY_TARGET, Ki, nM
measured = [
    ("CC(Cc1ccc(F)cc1)NCCCc1ccc(Cl)cc1 (stereo not drawn)", "VMAT2 (Rattus norvegicus (Rat))", 22),
    ("CC(Cc1ccccc1)NCCCc1ccc(I)cc1 (stereo not drawn) [Compound 215]", "VMAT2 (Rattus norvegicus (Rat))", 6.86),
    ("CC(Cc1ccncc1)NCCCc1ccc(F)cc1 (stereo not drawn)", "VMAT2 (Rattus norvegicus (Rat))", 72.4),
    ("CC(C)Nc1ccc(CCCNC(C)Cc2ccc(F)cc2)cc1 (stereo not drawn)", "VMAT2 (Rattus norvegicus (Rat))", 112),
    ("CC(Cc1ccc(Br)cc1)NCCCc1ccc(I)cc1 (stereo not drawn)", "VMAT2 (Rattus norvegicus (Rat))", 48.4),
    ("CC(Cc1ccccc1)NCCCc1ccc(-c2cccnc2)cc1 (stereo not drawn)", "VMAT2 (Rattus norvegicus (Rat))", 55.4),
    ("COc1ccc(CC(C)NCCCc2ccc([N+](=O)[O-])cc2)cc1 (stereo not drawn)", "VMAT2 (Rattus norvegicus (Rat))", 16.6),
    ("CC(Cc1ccc([N+](=O)[O-])cc1)NCCCc1ccncc1 (stereo not drawn)", "VMAT2 (Rattus norvegicus (Rat))", 157),
    ("CC(Cc1ccc(F)cc1)NCCCc1ccc(F)cc1 (stereo not drawn)", "VMAT2 (Rattus norvegicus (Rat))", 8.28),
    ("CC(Cc1ccc(NC=O)cc1)NCCCc1ccc(F)cc1 (stereo not drawn) [Compound 88]", "VMAT2 (Rattus norvegicus (Rat))", 12.7),
    ("CC(Cc1ccc(NC=O)cc1)NCCCc1ccccc1 (stereo not drawn)", "VMAT2 (Rattus norvegicus (Rat))", 21),
    ("Nc1ccc(CC(CF)NCCCc2ccc(F)cc2)cc1 (stereo not drawn)", "VMAT2 (Rattus norvegicus (Rat))", 19.8),
    ("CC(Cc1ccc(F)cc1)NCCCc1ccc(NC=O)cc1 (stereo not drawn)", "VMAT2 (Rattus norvegicus (Rat))", 22.5),
    ("CC(Cc1ccc(F)cc1)NCCCn1cccn1 (stereo not drawn)", "VMAT2 (Rattus norvegicus (Rat))", 709),
    ("CC(C)C(Cc1ccc(F)cc1)NCCCc1ccccc1 (stereo not drawn)", "VMAT2 (Rattus norvegicus (Rat))", 386),
    ("CC(Cc1ccc(NC=O)cc1)NCCCc1ccc(F)cc1 (stereo not drawn) [Compound 90]", "VMAT2 (Rattus norvegicus (Rat))", 12.7),
    ("FCC(Cc1ccc(F)cc1)NCCCc1ccc(F)cc1 (stereo not drawn)", "VMAT2 (Rattus norvegicus (Rat))", 27.3),
    ("CC(Cc1ccc(NC=O)cc1)N(C=O)CCCc1ccccc1 (stereo not drawn)", "VMAT2 (Rattus norvegicus (Rat))", 22700),
    ("CC(Cc1ccc(Cl)cc1)NCCCc1ccc(N)cc1 (stereo not drawn)", "VMAT2 (Rattus norvegicus (Rat))", 31.6),
    ("CC(Cc1ccccc1)NCCCc1ccc(I)cc1 (stereo not drawn) [Compound 212]", "VMAT2 (Rattus norvegicus (Rat))", 22.2),
    ("CC(Cc1ccc(F)c(F)c1)NCCCc1ccc([N+](=O)[O-])cc1 (stereo not drawn)", "VMAT2 (Rattus norvegicus (Rat))", 13.1),
]
